Mark 0 for melting point values under 200 °C, and 1 for everything at or above.

Would you please look over these solved cases?
compound | discreteLabel
Cn1cncc1C(N)(c1ccc(CN)cc1)c1ccc2c(c1)c(-c1cccc(Cl)c1)cc(=O)n2C (centres unmarked) [Example B41e] | 0
Cn1cnnc1C(O)(c1ccc(Cl)cc1)c1ccc2c(c1)c(-c1cccc(Cl)c1)cc(=O)n2Cc1ccc(C#N)cc1 (centres unmarked) | 0

## Input Confirm if melting point reported for the compound Cn1cncc1C(O)(c1ccc(CO)cc1)c1ccc2c(c1)c(-c1cccc(Cl)c1)cc(=O)n2C (racemic) is 200 °C or above.
## Output 1

## Input Confirm if melting point reported for the compound Cn1c(=O)cc(-c2cccc(Cl)c2)c2cc(C(O)(c3ccc(Cl)cc3)c3cnccc3Cl)ccc21 (centres unmarked) is 200 °C or above.
## Output 0

## Input Confirm if melting point reported for the compound Cn1cncc1C(O)(c1ccc(C(=O)O)cc1)c1ccc2c(c1)c(-c1cccc(Cl)c1)cc(=O)n2C (racemic) is 200 °C or above.
## Output 1

----------
reportedProperty: melting point

For orientation, consider the following solved cases.
compound | reportedProperty | dataValue
Cn1cncc1C(O)(c1ccc(C#N)cc1)c1ccc2c(c1)c(-c1cccc(Cl)c1)cc(=O)n2C (racemic) [Example B41b] | melting point | 210 °C
Cn1cnnc1C(C)(c1ccc(Cl)cc1)c1ccc2c(c1)c(-c1cccc(Cl)c1)cc(=O)n2C.O=C(O)C(=O)O (centres unmarked) | melting point | 130 °C
Cn1cncc1C(O)(c1cccc(CO)c1)c1ccc2c(c1)c(-c1cccc(Cl)c1)cc(=O)n2C (centres unmarked) [Example B45b] | melting point | 150 °C
Cl.Cn1cncc1C(O)(c1ccc(C=O)cc1)c1ccc2[nH]c(=O)cc(-c3cccc(Cl)c3)c2c1 (racemic) | melting point | > 260 °C
CC(C)OC(=O)c1cccc(C(O)(c2ccc3c(c2)c(-c2cccc(Cl)c2)cc(=O)n3C)c2cncn2C)c1 (centres unmarked) [Example B45a] | melting point | 150 °C

## Input Consider the compound shown here: Cn1cnnc1C(N)(c1ccc(I)cc1)c1ccc2c(c1)c(-c1cccc(Cl)c1)nc1nnnn12 (centres unmarked) [Example B29c] What is its recorded melting point?
## Output 238 °C

## Input Consider the compound shown here: Cn1cncc1C(O)(c1ccc2c(c1)OCCO2)c1ccc2[nH]c(=O)nc(-c3cccc(Cl)c3)c2c1 (centres unmarked) What is its recorded melting point?
## Output > 260 °C

## Input Consider the compound shown here: Cl.Cn1cncc1C(O)(c1ccc(C(=O)O)cc1)c1ccc2[nH]c(=O)cc(-c3cccc(Cl)c3)c2c1.O (racemic) (hydrate or solvate) What is its recorded melting point?
## Output > 300 °C

## Input Consider the compound shown here: Cn1cnnc1C(N)(c1ccc(C#N)cc1)c1ccc2c(c1)c(-c1cccc(Cl)c1)nc1nnnn12 (centres unmarked) [Example B29d] What is its recorded melting point?
## Output 194 °C

## Input Consider the compound shown here: Cn1cnnc1C(c1ccc(I)cc1)c1ccc2c(c1)c(-c1cccc(Cl)c1)nc1nnnn12 (centres unmarked) [Example B26b] What is its recorded melting point?
## Output 150 °C

## Input Consider the compound shown here: Cn1cnnc1C(N)(c1ccc(Cl)cc1)c1ccc2c(c1)c(-c1cccc(Cl)c1)cc(=O)n2C (centres unmarked) [Example B22b] What is its recorded melting point?
## Output 210 °C

## Input Consider the compound shown here: CSc1nnc(C(N)(c2ccc(Cl)cc2)c2ccc3c(c2)c(-c2cccc(Cl)c2)nc2nnnn23)n1C (centres unmarked) [Example B28d] What is its recorded melting point?
## Output 150 °C

## Input Consider the compound shown here: Cn1cnnc1C(O)(c1ccc(Cl)cc1)c1ccc2c(c1)c(-c1cccc(Cl)c1)cc(=O)n2C (centres unmarked) What is its recorded melting point?
## Output 182 °C

## Input Consider the compound shown here: Cn1cncc1C(O)(c1ccc(-c2ccc(Cl)cc2)cc1)c1ccc2c(c1)c(-c1cccc(Cl)c1)cc(=O)n2C (racemic) What is its recorded melting point?
## Output 236 °C
